# Measurement Target: T1, monkey CD3ε/δ-His (monkey, UniProt Q95LI5 22-117; Q95LI8 22-105)
# T1 construct: Bought recombinant heterodimer with His tag
# T1 sequence (Q95LI5 22-117, stated change not applied, form in doubt, chain 1 of 2): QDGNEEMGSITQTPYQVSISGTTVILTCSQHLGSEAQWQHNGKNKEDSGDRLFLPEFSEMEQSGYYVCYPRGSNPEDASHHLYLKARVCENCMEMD
# T1 sequence (Q95LI8 22-105, stated change not applied, form in doubt, chain 2 of 2): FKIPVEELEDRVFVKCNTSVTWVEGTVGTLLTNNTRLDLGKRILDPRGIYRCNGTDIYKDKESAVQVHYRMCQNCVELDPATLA
# Protocol Notes: ELISA, coated antigen
# Method: To detect the binding activity of the humanized antibodies to CD3 protein, CD3 protein was diluted with PBS to the final concentration of […], then added to a 96-well ELISA plate at 50 μL/well, and the plate was sealed with a plastic film, and incubated overnight at 4° C. […] The OD450 nm values were read by an ELISA microplate reader (Multimode Plate Reader, EnSight, purchased from Perkin Elmer). […]
Please go through the items and note down their max-OD450.
Express it in OD450; write the number only.

Sure, the documented max-OD450 for 1-22.6-1-H2a-L2a humanized antibody (antibody, human IgG1, kappa, V domains shown, also called 1-22.6-H2a-L2a) VH: EVQLVQSGSELKKPGASVKVSCKTSGYTFTSYGMSWVRQAPGQGLEWMGWINTYSGVPTYAQDFKGRFVFSLDTSVSTAYLQISSLKAEDTAVYYCARLKNNPFVWGQGTTVTVSS VL: DIVMTQSPDSLAVSLGERATINCRSSQLILHSSGNTYLEWYQQKPGQSPKLLIYKVSNRFSGVPDRFSGSGSGTDFTLTISSLQAEDVAVYYCFQGSHFPWTFGGGTKVEIKR is 3.23

Sure, the documented max-OD450 for 7-35.6-H2-L3 humanized antibody (antibody, human IgG1, lambda, V domains shown) VH: EVQLVESGGGLVQPGGSLKLSCAASGFTFNTYAMNWVRQASGKGLEWVGRIRSKINNYATYYGDSVKDRFTISRDDSKNTFYLQMNSLKTEDTAVYYCVIHENYGSISWFAYWGQGTLVTVSS VL: ETVVTQEPSLTVSPGGTVTLTCRSSTGAVTTSNYANWVQQKPGQAFTGLIGGTNNRAPWTPARFSGSLLGGKAALTLSGVQPEDEAEYYCALWYSNHWVFGGGTKLTVLG is 3.13
